measured.on: human VR1 (Homo sapiens, UniProt Q8NER1)
Construct: expressed in transfected cells; host or cells: HEK293
Sequence (Q8NER1 whole entry): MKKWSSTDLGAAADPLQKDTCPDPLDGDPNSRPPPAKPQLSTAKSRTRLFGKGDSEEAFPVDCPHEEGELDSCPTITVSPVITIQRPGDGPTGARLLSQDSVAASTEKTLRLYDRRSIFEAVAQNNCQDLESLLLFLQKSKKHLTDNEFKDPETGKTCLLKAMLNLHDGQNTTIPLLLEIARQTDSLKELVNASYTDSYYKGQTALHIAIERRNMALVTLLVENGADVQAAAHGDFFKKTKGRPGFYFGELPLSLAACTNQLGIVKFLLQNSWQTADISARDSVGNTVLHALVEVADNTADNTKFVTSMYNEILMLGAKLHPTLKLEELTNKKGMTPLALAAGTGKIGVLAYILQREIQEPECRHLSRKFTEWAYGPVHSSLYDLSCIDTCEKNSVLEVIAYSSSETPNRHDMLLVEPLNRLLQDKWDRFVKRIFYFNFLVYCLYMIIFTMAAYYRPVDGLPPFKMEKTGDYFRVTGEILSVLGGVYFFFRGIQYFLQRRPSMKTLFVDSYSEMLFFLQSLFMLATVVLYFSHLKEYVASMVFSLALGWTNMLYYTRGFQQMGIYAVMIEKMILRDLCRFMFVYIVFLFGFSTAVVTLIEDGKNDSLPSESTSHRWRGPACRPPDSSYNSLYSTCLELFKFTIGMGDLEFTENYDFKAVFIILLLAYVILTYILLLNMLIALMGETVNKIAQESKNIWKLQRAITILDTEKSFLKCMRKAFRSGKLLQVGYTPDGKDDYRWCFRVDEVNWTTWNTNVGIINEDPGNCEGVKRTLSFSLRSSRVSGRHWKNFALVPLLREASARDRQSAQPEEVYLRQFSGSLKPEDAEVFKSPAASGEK
experiment.description: Human VR1 functional assay (intracellular Ca++, FLIPR, capsaicin challenge)
Type: cell-based
cond: FLIPR functional assay IC50 hVR1 60 min, 60 min
Reported pIC50 values are given for each entry in this list.
// pIC50 is dimensionless: -log10 of concentration (M)

Below, each entry is followed by its recorded pIC50 result.
CCCCN(CCCC)c1ccc(C(=O)Nc2cnc3ccccc3c2)cc1 [4-Dibutylamino-N-quinolin-3-yl-benzamide]; 6.57
CN(CCC(C)(C)C)c1ccc(C(=O)Nc2cnc3ccccc3c2)cc1; 5.89
O=C(CCc1ccc(CC2CCCCC2)cc1)Nc1cnc2ccccc2c1; 7.46

Task: Give the measured pIC50 of "CN(CCCc1ccccc1)c1ccc(C(=O)Nc2cnc3ccccc3c2)cc1" .
Output: 6.81

Task: Give the measured pIC50 of "CCCN(CCc1ccccc1)c1ccc(C(=O)Nc2cnc3ccccc3c2)cc1" .
Output: 6.44

Task: Give the measured pIC50 of "Cc1cc(C(=O)Nc2cnc3ccccc3c2)ccc1N(C)C1CCCCC1" .
Output: 7.64

Task: Give the measured pIC50 of CCCCCNc1ccc(C(=O)Nc2cnc3ccccc3c2)cc1 [4-Pentylamino-N-quinolin-3-yl-benzamide] .
Output: 4.52

Task: Give the measured pIC50 of "CCCCCN1CCCc2cc(C(=O)Nc3cnc4ccccc4c3)ccc21" .
Output: 6.33

Task: Give the measured pIC50 of "CC(C)=CCC[C@H](C)CCN(C)c1ccc(C(=O)Nc2cnc3ccccc3c2)cc1" .
Output: 6.82
